Below: a set of entries, each annotated with reported Dmax.
- test.target: NEK7 (Homo sapiens (Human), UniProt Q8TDX7+Q96SW2)
- Sequence (Q8TDX7 whole entry): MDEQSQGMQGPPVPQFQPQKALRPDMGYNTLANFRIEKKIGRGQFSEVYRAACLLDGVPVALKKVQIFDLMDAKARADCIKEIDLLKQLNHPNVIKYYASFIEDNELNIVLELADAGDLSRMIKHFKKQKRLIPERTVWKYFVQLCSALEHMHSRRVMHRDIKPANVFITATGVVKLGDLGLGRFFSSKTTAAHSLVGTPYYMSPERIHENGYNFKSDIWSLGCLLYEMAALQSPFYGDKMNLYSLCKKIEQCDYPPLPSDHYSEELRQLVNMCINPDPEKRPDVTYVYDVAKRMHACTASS
- Sequence (Q96SW2 whole entry): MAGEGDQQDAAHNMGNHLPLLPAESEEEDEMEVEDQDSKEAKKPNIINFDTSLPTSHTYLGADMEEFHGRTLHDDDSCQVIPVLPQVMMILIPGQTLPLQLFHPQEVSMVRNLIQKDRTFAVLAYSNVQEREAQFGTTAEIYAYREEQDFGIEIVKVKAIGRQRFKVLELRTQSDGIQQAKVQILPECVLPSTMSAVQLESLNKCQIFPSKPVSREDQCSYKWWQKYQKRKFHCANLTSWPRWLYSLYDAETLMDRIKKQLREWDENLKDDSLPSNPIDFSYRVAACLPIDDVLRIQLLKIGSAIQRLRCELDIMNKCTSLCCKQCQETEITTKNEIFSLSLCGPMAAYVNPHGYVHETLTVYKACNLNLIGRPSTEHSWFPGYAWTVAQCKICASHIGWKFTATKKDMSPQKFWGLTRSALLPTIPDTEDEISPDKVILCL
- Sequence (Q16531 2-1140 partner): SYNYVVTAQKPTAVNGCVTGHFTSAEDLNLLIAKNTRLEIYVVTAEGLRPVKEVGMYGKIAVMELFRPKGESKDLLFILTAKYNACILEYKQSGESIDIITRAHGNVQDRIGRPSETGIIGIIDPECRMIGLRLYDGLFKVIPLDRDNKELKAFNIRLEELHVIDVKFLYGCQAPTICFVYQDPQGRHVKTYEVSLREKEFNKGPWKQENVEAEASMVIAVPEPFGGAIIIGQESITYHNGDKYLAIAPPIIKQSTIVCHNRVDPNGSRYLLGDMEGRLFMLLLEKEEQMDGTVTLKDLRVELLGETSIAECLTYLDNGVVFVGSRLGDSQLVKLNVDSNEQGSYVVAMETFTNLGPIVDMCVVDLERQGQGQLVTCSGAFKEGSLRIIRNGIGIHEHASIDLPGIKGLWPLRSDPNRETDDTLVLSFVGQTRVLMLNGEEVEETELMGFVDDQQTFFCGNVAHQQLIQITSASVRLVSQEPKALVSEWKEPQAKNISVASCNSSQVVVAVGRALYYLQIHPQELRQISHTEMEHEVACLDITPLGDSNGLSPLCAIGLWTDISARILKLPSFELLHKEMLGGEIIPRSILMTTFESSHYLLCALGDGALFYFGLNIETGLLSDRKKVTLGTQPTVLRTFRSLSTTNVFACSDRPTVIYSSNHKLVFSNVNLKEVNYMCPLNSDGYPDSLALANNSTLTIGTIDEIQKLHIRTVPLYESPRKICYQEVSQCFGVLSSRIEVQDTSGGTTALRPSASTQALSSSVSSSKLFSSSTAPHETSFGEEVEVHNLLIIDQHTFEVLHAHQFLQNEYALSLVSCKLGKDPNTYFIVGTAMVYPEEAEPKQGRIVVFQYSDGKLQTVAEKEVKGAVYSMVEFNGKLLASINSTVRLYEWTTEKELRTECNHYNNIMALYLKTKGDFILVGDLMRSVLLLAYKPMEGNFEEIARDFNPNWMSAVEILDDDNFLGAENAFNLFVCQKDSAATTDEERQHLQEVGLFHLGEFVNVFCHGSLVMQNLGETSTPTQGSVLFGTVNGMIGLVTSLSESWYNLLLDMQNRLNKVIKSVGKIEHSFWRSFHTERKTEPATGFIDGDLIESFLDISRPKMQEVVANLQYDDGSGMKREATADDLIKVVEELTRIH
- assay.notes: NEK7 NanoBiT degradation assay in Cal51 NEK7 NanoBiT cell line
- Type: cell-based
- cond: CAL-51; Cal51 NEK7 NanoBiT cells, 24 hours; read-out: NEK7 NanoBiT Dmax
observation.type: Dmax (%)

INSERT INTO assay_data (molecule, observation_type, experimental_result) VALUES
  ('COc1cnc(C(C)(C)C(=O)NCc2cc(Cl)c(C3CCC(=O)NC3=O)c(Cl)c2)nc1C (stereo not drawn) [Compound 221]', 'Dmax', 83),
  ('CC(C)(C(=O)NCc1cc(Cl)c(C2CCC(=O)NC2=O)c(Cl)c1)c1nnc(C(F)(F)F)o1 (stereo not drawn) [Compound 208]', 'Dmax', 56),
  ('Cc1ccc(C(C)(C)C(=O)NCc2cc(Cl)c(C3CCC(=O)NC3=O)c(Cl)c2)cn1 (stereo not drawn) [Compound 205]', 'Dmax', 97),
  ('CC(C)(C(=O)NCc1cc(Cl)c(C2CCC(=O)NC2=O)c(Cl)c1)c1ccc(C(N)=O)cc1F (stereo not drawn) [Compound 51]', 'Dmax', 96),
  ('Cc1ccc(C(C)(C)C(=O)NCc2cc(Cl)c(C3CCC(=O)NC3=O)c(Cl)c2)nn1 (stereo not drawn) [Compound 12]', 'Dmax', 91),
  ('CC(C)(C(=O)NCc1cc(Cl)c(C2CCC(=O)NC2=O)c(Cl)c1)c1ccc(C#N)cc1 (stereo not drawn) [Compound 29]', 'Dmax', 97),
  ('CC(C)(C(=O)NCc1cc(Cl)c(C2CCC(=O)NC2=O)c(Cl)c1)c1cnco1 (stereo not drawn) [Compound 122]', 'Dmax', 73),
  ('CC(C)(C(=O)NCc1cc(Cl)c(C2CCC(=O)NC2=O)c(Cl)c1)c1ncco1 (stereo not drawn) [Compound 124]', 'Dmax', 73),
  ('CC(C)(C(=O)NCc1cc(Cl)c(C2CCC(=O)NC2=O)c(Cl)c1)c1ncc(OC(F)F)cn1 (stereo not drawn) [Compound 188]', 'Dmax', 93),
  ('CC(C)(C(=O)NCc1cc(Cl)c(C2CCC(=O)NC2=O)c(Cl)c1)c1ccns1 (stereo not drawn) [Compound 125]', 'Dmax', 71),
  ('CC(C)(C(=O)NCc1cc(Cl)c(C2CCC(=O)NC2=O)c(Cl)c1)c1ncc(OC(F)(F)F)cn1 (stereo not drawn) [Compound 229]', 'Dmax', 88),
  ('CC(C)(C(=O)NCc1cc(Cl)c(C2CCC(=O)NC2=O)c(Cl)c1)c1ccccc1 (stereo not drawn) [Compound 37]', 'Dmax', 97),
  ('CC(C)(C(=O)NCc1cc(Cl)c(C2CCC(=O)NC2=O)c(Cl)c1)c1ncc(CC(F)F)cn1 (stereo not drawn) [Compound 186]', 'Dmax', 65),
  ('CC(C)(C(=O)NCc1cc(Cl)c([C@H]2CCC(=O)NC2=O)c(Cl)c1)c1ncc(C#N)cn1 (single isomer, unassigned) [Compound 153]', 'Dmax', 90),
  ('O=C1CC(C(=O)NCc2cc(Cl)c(C3CCC(=O)NC3=O)c(Cl)c2)(c2ccc(F)cc2)C1 (stereo not drawn) [Compound 137]', 'Dmax', 97);

* * *

- test.target: NEK7 (Homo sapiens (Human), UniProt Q8TDX7+Q96SW2)
- assay.notes: NEK7 NanoBiT degradation assay in Cal51 NEK7 NanoBiT cell line
- Assay type: cell-based
- cond: CAL-51; Cal51 NEK7 NanoBiT cells, 24 hours; read-out: NEK7 NanoBiT Dmax
Threshold check on Dmax: at or above 90% gives Satisfied, strictly below gives Not satisfied.

INSERT INTO assay_data (compound, assigned_label) VALUES
  ('CC(C)(C(=O)NCc1cc(F)c(C2CCC(=O)NC2=O)c(Cl)c1)c1ccccc1 (stereo not shown)', 'Satisfied'),
  ('CC(C)(O)c1cnc(C(C)(C)C(=O)NCc2cc(Cl)c(C3CCC(=O)NC3=O)c(Cl)c2)nc1 (stereo not shown)', 'Not satisfied'),
  ('CC(C)(C(=O)NCc1cc(Cl)c(C2CCC(=O)NC2=O)c(Cl)c1)c1ccnc(C(F)(F)F)c1 (stereo not shown)', 'Not satisfied'),
  ('CC(C)(C(=O)NCc1cc(Cl)c(C2CCC(=O)NC2=O)c(Cl)c1)c1cc[nH]c(=O)c1 (stereo not shown)', 'Satisfied');

* * *

- assay.notes: Plasma pharmacokinetics in NHP, 30 mg/kg oral for 7 days
- Type: in vivo
- cond: both sexes, monkey, plasma, po, 30 mg/kg, oral 30 mg/kg daily for 7 days, average male and female
observation.type: AUC0-24h

INSERT INTO results (compound, observation_type, experimental_result) VALUES
  ('Cc1cnc(C(C)(C)C(=O)NCc2cc(Cl)c(C3CCC(=O)NC3=O)c(Cl)c2)nc1 (stereo not shown) [Compound 14]', 'AUC0-24h', '36600 ng·h/mL');

* * *

- assay.notes: Plasma pharmacokinetics in NHP, 30 mg/kg oral for 7 days
- Format: in vivo
- cond: both sexes, non-human primate (NHP), oral 30 mg/kg daily for 7 days, average male and female
observation.type: Tmax (h)

INSERT INTO results (molecule, experimental_result) VALUES
  ('Cc1cnc(C(C)(C)C(=O)NCc2cc(Cl)c(C3CCC(=O)NC3=O)c(Cl)c2)nc1 (stereo not shown) [Compound 14]', 1.75);

* * *

- test.target: CRBN-DDB1 (Homo sapiens (Human))
- Sequence (Q16531 whole entry partner, one chain of several): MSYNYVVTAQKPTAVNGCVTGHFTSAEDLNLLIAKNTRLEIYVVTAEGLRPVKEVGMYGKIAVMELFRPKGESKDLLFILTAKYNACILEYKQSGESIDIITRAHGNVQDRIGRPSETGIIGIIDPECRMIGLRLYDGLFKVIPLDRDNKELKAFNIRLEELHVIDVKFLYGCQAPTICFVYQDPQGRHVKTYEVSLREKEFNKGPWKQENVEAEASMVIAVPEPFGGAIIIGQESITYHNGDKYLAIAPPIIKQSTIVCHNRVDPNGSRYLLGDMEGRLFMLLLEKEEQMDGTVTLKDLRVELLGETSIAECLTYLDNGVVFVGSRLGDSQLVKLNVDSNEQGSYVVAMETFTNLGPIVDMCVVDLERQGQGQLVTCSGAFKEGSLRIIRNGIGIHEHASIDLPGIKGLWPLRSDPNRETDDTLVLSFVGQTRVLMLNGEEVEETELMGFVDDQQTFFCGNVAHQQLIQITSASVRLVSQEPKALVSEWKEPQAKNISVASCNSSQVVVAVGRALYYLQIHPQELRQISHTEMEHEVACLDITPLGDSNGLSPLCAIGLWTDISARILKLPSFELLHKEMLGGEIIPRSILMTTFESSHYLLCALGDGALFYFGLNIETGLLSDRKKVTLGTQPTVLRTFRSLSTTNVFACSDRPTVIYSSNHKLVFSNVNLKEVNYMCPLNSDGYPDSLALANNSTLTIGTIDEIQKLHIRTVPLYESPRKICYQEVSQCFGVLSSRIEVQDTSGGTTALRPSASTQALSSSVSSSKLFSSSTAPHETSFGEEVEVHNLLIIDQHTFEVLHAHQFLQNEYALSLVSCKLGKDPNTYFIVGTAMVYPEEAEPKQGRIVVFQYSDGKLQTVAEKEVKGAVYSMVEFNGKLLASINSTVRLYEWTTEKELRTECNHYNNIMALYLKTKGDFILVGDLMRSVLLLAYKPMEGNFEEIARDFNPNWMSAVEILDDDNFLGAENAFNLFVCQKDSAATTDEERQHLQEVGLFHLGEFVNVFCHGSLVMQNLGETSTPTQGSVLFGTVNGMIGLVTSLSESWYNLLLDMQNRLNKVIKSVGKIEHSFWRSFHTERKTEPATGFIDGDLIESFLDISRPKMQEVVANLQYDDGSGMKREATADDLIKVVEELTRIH
- assay.notes: Compound binding to CRBN by HTRF assay
- cond: HTRF class; Cereblon binding
pEC50: −log10 of the molar value.
Below: a set of entries, each annotated with reported pEC50.
observation.type: pEC50

INSERT INTO results (compound, test_target, experimental_result) VALUES
  ('CC(C)(C(=O)NCc1cc(Cl)c(C2CCC(=O)NC2=O)c(Cl)c1)c1ccn(CC(F)(F)F)c(=O)c1 (stereo not shown)', 'CRBN-DDB1 (Homo sapiens (Human))', '6.00 to 7.00'),
  ('CC(C)(C(=O)NCc1cc(F)c(C2CCC(=O)NC2=O)c(Cl)c1)c1ccncc1 (stereo not shown)', 'CRBN-DDB1 (Homo sapiens (Human))', '6.00 to 7.00'),
  ('CC(C)(C(=O)NCc1cc(Cl)c(C2CCC(=O)NC2=O)c(Cl)c1)c1ccn2cnnc2c1 (stereo not shown)', 'CRBN-DDB1 (Homo sapiens (Human))', '6.00 to 7.00'),
  ('COc1conc1C(C)(C)C(=O)NCc1cc(Cl)c(C2CCC(=O)NC2=O)c(Cl)c1 (stereo not shown)', 'CRBN-DDB1 (Homo sapiens (Human))', '6.00 to 7.00'),
  ('CC(C)(C(=O)NCc1cc(Cl)c(C2CCC(=O)NC2=O)c(Cl)c1)c1ccncc1 (stereo not shown)', 'CRBN-DDB1 (Homo sapiens (Human))', '≥ 7.00'),
  ('Cn1c(=O)[nH]c2cc(C(C)(C)C(=O)NCc3cc(Cl)c(C4CCC(=O)NC4=O)c(Cl)c3)ccc21 (stereo not shown)', 'CRBN-DDB1 (Homo sapiens (Human))', '6.00 to 7.00'),
  ('CC(C)(C(=O)NCc1cc(Cl)c(C2CCC(=O)NC2=O)c(Cl)c1)c1nccc(C2CC2)n1 (stereo not shown)', 'CRBN-DDB1 (Homo sapiens (Human))', '6.00 to 7.00'),
  ('CC(C)(C(=O)NCc1cc(Cl)c(C2CCC(=O)NC2=O)c(Cl)c1)c1ccc2ncncc2c1 (stereo not shown)', 'CRBN-DDB1 (Homo sapiens (Human))', '6.00 to 7.00'),
  ('CC(C)(C(=O)NCc1cc(Cl)c(C2CCC(=O)NC2=O)c(Cl)c1)c1ccc2ncsc2c1 (stereo not shown)', 'CRBN-DDB1 (Homo sapiens (Human))', '≥ 7.00'),
  ('O=C1CCC(c2c(Cl)cc(CNC(=O)C3(c4ccc(F)cc4)COC3)cc2Cl)C(=O)N1 (stereo not shown)', 'CRBN-DDB1 (Homo sapiens (Human))', '≥ 7.00'),
  ('Cn1ccc(C2(C(=O)NCc3cc(Cl)c(C4CCC(=O)NC4=O)c(Cl)c3)CCC2)cc1=O (stereo not shown)', 'CRBN-DDB1 (Homo sapiens (Human))', '6.00 to 7.00'),
  ('CC(C)(C(=O)NCc1cc(Cl)c(C2CCC(=O)NC2=O)c(Cl)c1)c1ccn2ccnc2c1 (stereo not shown)', 'CRBN-DDB1 (Homo sapiens (Human))', '6.00 to 7.00'),
  ('CC(C)(C(=O)NCc1cc(Cl)c(C2CCC(=O)NC2=O)c(Cl)c1)c1cc(C#N)ccn1 (stereo not shown)', 'CRBN-DDB1 (Homo sapiens (Human))', '6.00 to 7.00'),
  ('O=C1CCC(c2c(Cl)cc(CNC(=O)C3(c4ccccc4)CCOC3)cc2Cl)C(=O)N1 (stereo not shown)', 'CRBN-DDB1 (Homo sapiens (Human))', '≥ 7.00'),
  ('CC(C)(C(=O)NCc1cc(Cl)c(C2CCC(=O)NC2=O)c(Cl)c1)c1ccc2nonc2c1 (stereo not shown)', 'CRBN-DDB1 (Homo sapiens (Human))', '≥ 7.00'),
  ('O=C1CCC(c2c(Cl)cc(CNC(=O)C3(c4ccccc4)COC3)cc2Cl)C(=O)N1 (stereo not shown)', 'CRBN-DDB1 (Homo sapiens (Human))', '≥ 7.00'),
  ('CC(C)(C(=O)NCc1cc(Cl)c(C2CCC(=O)NC2=O)c(Cl)c1)C1CCCO1 (stereo not shown)', 'CRBN-DDB1 (Homo sapiens (Human))', '≥ 7.00'),
  ('CC(C)(C(=O)NCc1cc(Cl)c(C2CCC(=O)NC2=O)c(Cl)c1)c1nnc(C(F)(F)F)o1 (stereo not shown)', 'CRBN-DDB1 (Homo sapiens (Human))', '6.00 to 7.00'),
  ('CC(C)(C(=O)NCc1cc(Cl)c(C2CCC(=O)NC2=O)c(Cl)c1)c1ccon1 (stereo not shown)', 'CRBN-DDB1 (Homo sapiens (Human))', '6.00 to 7.00'),
  ('CCOc1ccc(C(C)(C)C(=O)NCc2cc(F)c(C3CCC(=O)NC3=O)c(Cl)c2)nn1 (stereo not shown)', 'CRBN-DDB1 (Homo sapiens (Human))', '≥ 7.00'),
  ('CC(C)(C(=O)NCc1cc(Cl)c(C2CCC(=O)NC2=O)c(Cl)c1)c1ncoc1C(F)(F)F (stereo not shown)', 'CRBN-DDB1 (Homo sapiens (Human))', '6.00 to 7.00'),
  ('CC(C)(C(=O)NCc1cc(Cl)c(C2CCC(=O)NC2=O)c(Cl)c1)c1ccc2occc2c1 (stereo not shown)', 'CRBN-DDB1 (Homo sapiens (Human))', '≥ 7.00'),
  ('CC(C)(C(=O)NCc1cc(Cl)c(C2CCC(=O)NC2=O)c(Cl)c1)c1ccc2c(c1)CNS2(=O)=O (stereo not shown)', 'CRBN-DDB1 (Homo sapiens (Human))', '≥ 7.00'),
  ('CC(C)(C(=O)NCc1cc(Cl)c(C2CCC(=O)NC2=O)c(Cl)c1)c1cnc(OC(F)F)cn1 (stereo not shown)', 'CRBN-DDB1 (Homo sapiens (Human))', '≥ 7.00'),
  ('CC(C)(C(=O)NCc1cc(Cl)c(C2CCC(=O)NC2=O)c(Cl)c1)c1cnccn1 (stereo not shown)', 'CRBN-DDB1 (Homo sapiens (Human))', '6.00 to 7.00'),
  ('Cc1cc(C(C)(C)C(=O)NCc2cc(Cl)c(C3CCC(=O)NC3=O)c(Cl)c2)cc(=O)n1C (stereo not shown)', 'CRBN-DDB1 (Homo sapiens (Human))', '6.00 to 7.00'),
  ('CC(C)(C(=O)NCc1cc(Cl)c(C2CCC(=O)NC2=O)c(Cl)c1)c1ncc(OC(F)(F)F)cn1 (stereo not shown)', 'CRBN-DDB1 (Homo sapiens (Human))', '6.00 to 7.00'),
  ('CC(C)(C(=O)NCc1cc(Cl)c(C2CCC(=O)NC2=O)c(Cl)c1)c1nccc(C(F)(F)F)n1 (stereo not shown)', 'CRBN-DDB1 (Homo sapiens (Human))', '6.00 to 7.00'),
  ('Cc1conc1C(C)(C)C(=O)NCc1cc(Cl)c(C2CCC(=O)NC2=O)c(Cl)c1 (stereo not shown)', 'CRBN-DDB1 (Homo sapiens (Human))', '6.00 to 7.00'),
  ('COc1cnc(C(C)(C)C(=O)NCc2cc(Cl)c(C3CCC(=O)NC3=O)c(Cl)c2)nc1C (stereo not shown)', 'CRBN-DDB1 (Homo sapiens (Human))', '≥ 7.00'),
  ('COCc1cnc(C(C)(C)C(=O)NCc2cc(Cl)c(C3CCC(=O)NC3=O)c(Cl)c2)nc1 (stereo not shown)', 'CRBN-DDB1 (Homo sapiens (Human))', '6.00 to 7.00');

Every entry's value here was drawn from patent US20250243180A1.
